Data origin, for the record: the supplement of paper PMC6555819

# reported PBM binding z-score; entries follow
Test system: PXR:RXRa (NR concentration 270 nM, RXRa partner concentration 90 nM)
Assay: PBM binding z-score (relative to random genomic background probes); higher = stronger binding; sequences stand for … in GC…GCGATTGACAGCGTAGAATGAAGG
Format: numeric value only, no unit, no commentary.

Observe how each entry below is paired with its result.
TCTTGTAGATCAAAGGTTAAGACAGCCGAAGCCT :: 2.12
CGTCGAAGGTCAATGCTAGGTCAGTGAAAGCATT :: 4.73
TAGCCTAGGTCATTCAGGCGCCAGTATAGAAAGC :: 1.68
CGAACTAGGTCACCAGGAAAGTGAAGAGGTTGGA :: 1.48
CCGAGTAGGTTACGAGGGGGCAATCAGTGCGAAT :: 4.26

stdin: Kindly state the measured PBM binding z-score obtained for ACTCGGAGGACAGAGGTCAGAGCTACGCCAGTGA with PXR:RXRa (NR concentration 270 nM, RXRa partner concentration 90 nM).
stdout: 3.17

stdin: Same question for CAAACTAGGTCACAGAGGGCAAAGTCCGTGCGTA please.
stdout: 4.26

stdin: What would you report for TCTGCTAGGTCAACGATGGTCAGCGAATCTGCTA ?
stdout: 1.44

stdin: Now consider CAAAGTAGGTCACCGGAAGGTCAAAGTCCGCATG and answer again.
stdout: 6.22

stdin: Same question for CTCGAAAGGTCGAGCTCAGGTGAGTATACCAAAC please.
stdout: 2.86

stdin: Also check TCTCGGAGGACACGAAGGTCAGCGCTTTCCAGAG
stdout: 2.49

stdin: Another sequence: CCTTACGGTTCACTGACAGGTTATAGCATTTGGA
stdout: 2.14
